Source of measurements: patent US11103511B2

Experimental system: IDO2 (Homo sapiens)
Construct: made in house
Protocol: Half effective inhibitory concentration IC50 (enzyme level) of IDO2
Assay type: biochemical
Test settings: human IDO2, pH 7.5, read-out: IC50 enzymatic IDO2
Observation type: IC50 (µM)
Report as a plain number; the unit µM is understood.

Query: I would be grateful if you could share the reported IC50 for CN1CCN(Cc2ccc3nc4n(c(=O)c3c2)-c2ccc(F)cc2C4=O)CC1 .
Reply: 18.4

Query: // same read-out, input: CC(C)(C)OC(=O)N1CCN(Cc2ccc3nc4n(c(=O)c3c2)-c2ccc(F)cc2C4=O)CC1
Reply: 62.6

Query: // same read-out, input: O=C1c2cc(F)ccc2-n2c1nc1ccc(CN3CCOCC3)cc1c2=O
Reply: 39.6

Query: // same read-out, input: CN1CCN(Cc2ccc3nc4n(c(=O)c3c2)-c2ccccc2C4=O)CC1
Reply: 46.9

Query: // same read-out, input: O=C1c2cc(Cn3cc(-c4ccccc4)nn3)ccc2-n2c1nc1ccc(Br)cc1c2=O
Reply: 102

Query: // same read-out, input: O=C1c2cc(F)ccc2-n2c1nc1ccc(CN3CCNCC3)cc1c2=O
Reply: 31.4

Query: // same read-out, input: O=C1c2cc(Cn3cc(-c4ccccc4)nn3)ccc2-n2c1nc1ccccc1c2=O
Reply: 98

Query: // same read-out, input: CN(C)Cc1ccc2nc3n(c(=O)c2c1)-c1ccc(F)cc1C3=O
Reply: 14

Query: // same read-out, input: O=C1c2cc(Cn3cc(-c4ccccc4)nn3)ccc2-n2c1nc1ccc(F)cc1c2=O
Reply: 99.6

Query: // same read-out, input: Cc1ccc2nc3n(c(=O)c2c1)-c1ccc(Cn2cc(-c4ccccc4)nn2)cc1C3=O
Reply: 134

Query: // same read-out, input: O=C1c2cc(Cn3cc(-c4ccccc4)nn3)ccc2-n2c1nc1ccc(Cl)cc1c2=O
Reply: 125

Query: // same read-out, input: O=C1c2cc(F)ccc2-n2c1nc1ccc(Cn3cc(-c4ccccc4)nn3)cc1c2=O
Reply: 83

====

Dear all, this message contains Ki results, target or system IDO1 (Homo sapiens).
Report as a plain number; the unit µM is understood.

Query: I would be grateful if you could share the reported Ki for O=C1c2cc(F)ccc2-n2c1nc1ccc(Cn3cc(-c4ccccc4)nn3)cc1c2=O .
Reply: 63.3

Query: // same read-out, input: O=C1c2cc(Cn3cc(-c4ccccc4)nn3)ccc2-n2c1nc1ccccc1c2=O
Reply: 103

====

So I've got a bunch of compounds here, and I need their pIC50 values.
Experimental system: IDO1 (Homo sapiens)
Sequence (P14902 whole entry): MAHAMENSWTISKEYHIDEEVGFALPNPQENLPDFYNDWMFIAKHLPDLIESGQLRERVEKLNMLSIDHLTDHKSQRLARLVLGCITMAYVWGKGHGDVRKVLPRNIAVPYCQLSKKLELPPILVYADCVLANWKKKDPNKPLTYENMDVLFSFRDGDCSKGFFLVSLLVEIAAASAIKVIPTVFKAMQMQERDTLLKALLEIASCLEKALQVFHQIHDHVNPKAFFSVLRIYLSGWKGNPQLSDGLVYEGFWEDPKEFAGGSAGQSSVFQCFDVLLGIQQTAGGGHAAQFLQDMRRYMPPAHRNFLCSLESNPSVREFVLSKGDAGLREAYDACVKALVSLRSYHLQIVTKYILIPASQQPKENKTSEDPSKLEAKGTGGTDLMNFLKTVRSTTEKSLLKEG
Protocol: Cellular IC50 of IDO1
Assay type: cell-based
// pIC50 is dimensionless: -log10 of concentration (M)

Query: I would be grateful if you could share the reported pIC50 for CN1CCN(Cc2ccc3nc4n(c(=O)c3c2)-c2ccc(F)cc2C4=O)CC1 .
Reply: 7.66

Query: // same read-out, input: CC(C)(C)OC(=O)N1CCN(Cc2ccc3nc4n(c(=O)c3c2)-c2ccc(F)cc2C4=O)CC1
Reply: 6.88

====

Experimental system: hTDO (Homo sapiens, UniProt P48775)
Construct: made in house
Sequence (P48775 whole entry): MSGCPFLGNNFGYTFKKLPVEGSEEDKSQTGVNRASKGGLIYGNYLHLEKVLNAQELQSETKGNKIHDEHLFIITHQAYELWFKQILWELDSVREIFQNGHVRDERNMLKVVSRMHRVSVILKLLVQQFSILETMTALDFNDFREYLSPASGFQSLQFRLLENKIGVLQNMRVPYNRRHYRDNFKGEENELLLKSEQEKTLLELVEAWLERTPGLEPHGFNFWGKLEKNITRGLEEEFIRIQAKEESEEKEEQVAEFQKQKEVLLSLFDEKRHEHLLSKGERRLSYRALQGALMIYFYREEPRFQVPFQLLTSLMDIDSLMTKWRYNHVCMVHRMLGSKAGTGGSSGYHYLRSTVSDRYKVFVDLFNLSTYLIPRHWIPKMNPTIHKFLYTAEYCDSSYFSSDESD
Protocol: Half effective inhibitory concentration IC50 (enzyme level) of TDO
Assay type: biochemical
Test settings: pH 7.0, NI means of no inhibitory activity, read-out: IC50 enzymatic TDO
pIC50: −log10 of the molar value.
Class YES: pIC50 at least 6. Class NO: pIC50 below 6.

Query: Does the molecule CC(C)(C)OC(=O)N1CCN(Cc2ccc3nc4n(c(=O)c3c2)-c2ccc(F)cc2C4=O)CC1 [1c] have recorded pIC50 that is 6 or more?
Reply: YES

Query: // same read-out, input: O=C1c2cc(F)ccc2-n2c1nc1ccc(Cn3cc(-c4ccccc4)nn3)cc1c2=O [3c]
Reply: NO

Query: // same read-out, input: O=C1c2cc(Cn3cc(-c4ccccc4)nn3)ccc2-n2c1nc1ccc(F)cc1c2=O [3b]
Reply: NO

Query: // same read-out, input: O=C1c2cc(Cn3cc(-c4ccccc4)nn3)ccc2-n2c1nc1ccc(Cl)cc1c2=O [3f]
Reply: NO

Query: // same read-out, input: CN(C)Cc1ccc2nc3n(c(=O)c2c1)-c1ccc(F)cc1C3=O [1e]
Reply: YES

Query: // same read-out, input: CN1CCN(Cc2ccc3nc4n(c(=O)c3c2)-c2ccccc2C4=O)CC1 [1d]
Reply: NO

Query: // same read-out, input: O=C1c2cc(Cn3cc(-c4ccccc4)nn3)ccc2-n2c1nc1ccc(Br)cc1c2=O [3e]
Reply: NO

====

Experimental system: IDO2 (Homo sapiens)
Construct: made in house
Sequence (Q6ZQW0 1-407): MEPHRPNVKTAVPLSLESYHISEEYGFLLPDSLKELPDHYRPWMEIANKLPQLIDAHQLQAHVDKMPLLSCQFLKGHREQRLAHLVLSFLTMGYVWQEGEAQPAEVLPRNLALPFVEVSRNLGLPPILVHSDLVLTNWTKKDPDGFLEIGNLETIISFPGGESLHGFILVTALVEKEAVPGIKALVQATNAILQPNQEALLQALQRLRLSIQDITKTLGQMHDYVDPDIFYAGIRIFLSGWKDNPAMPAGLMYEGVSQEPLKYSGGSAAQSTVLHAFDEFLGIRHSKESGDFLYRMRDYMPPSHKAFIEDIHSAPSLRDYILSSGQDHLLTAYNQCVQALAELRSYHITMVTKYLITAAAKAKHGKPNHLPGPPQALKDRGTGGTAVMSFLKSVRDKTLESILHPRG
Protocol: Half effective inhibitory concentration IC50 (cell) of IDO2, transfected U87 MG cells
Format: cell-based
Test settings: U87 MG cells transfected with pcDNA3.1(+)-IDO2, 24 h; read-out: IC50 Cellular IDO2
pIC50: −log10 of the molar value.
Class y: pIC50 at least 5. Class n: pIC50 below 5.

Query: Does the molecule O=C1c2cc(F)ccc2-n2c1nc1ccc(CN3CCNCC3)cc1c2=O have recorded pIC50 that is 5 or more?
Reply: y

Query: // same read-out, input: O=C1c2cc(Cn3cc(-c4ccccc4)nn3)ccc2-n2c1nc1ccc(F)cc1c2=O
Reply: n

Query: // same read-out, input: CN1CCN(Cc2ccc3nc4n(c(=O)c3c2)-c2ccc(F)cc2C4=O)CC1
Reply: n

Query: // same read-out, input: O=C1c2cc(Cn3cc(-c4ccccc4)nn3)ccc2-n2c1nc1ccc(Br)cc1c2=O
Reply: n

Query: // same read-out, input: O=C1c2cc(Cn3cc(-c4ccccc4)nn3)ccc2-n2c1nc1ccc(Cl)cc1c2=O
Reply: n

Query: // same read-out, input: O=C1c2cc(Cn3cc(-c4ccccc4)nn3)ccc2-n2c1nc1ccccc1c2=O
Reply: n

Query: // same read-out, input: O=C1c2cc(F)ccc2-n2c1nc1ccc(Cn3cc(-c4ccccc4)nn3)cc1c2=O
Reply: n

Query: // same read-out, input: Cc1ccc2nc3n(c(=O)c2c1)-c1ccc(Cn2cc(-c4ccccc4)nn2)cc1C3=O
Reply: n

Query: // same read-out, input: O=C1c2cc(F)ccc2-n2c1nc1ccc(CN3CCOCC3)cc1c2=O
Reply: n

Query: // same read-out, input: CN1CCN(Cc2ccc3nc4n(c(=O)c3c2)-c2ccccc2C4=O)CC1
Reply: n

Query: // same read-out, input: CN(C)Cc1ccc2nc3n(c(=O)c2c1)-c1ccc(F)cc1C3=O
Reply: y

====

Experimental system: hTDO (Homo sapiens, UniProt P48775)
Construct: made in house
Protocol: Half effective inhibitory concentration IC50 (cell) of TDO, transfected HEK293 cells
Type: cell-based
Test settings: HEK293 cells transfected with pcDNA3.1(+)-hTDO, 5 h; NI means of no inhibitory activity; read-out: IC50 Cellular TDO
Consider the following partition of reported IC50 into named classes: c1 (below 90 nM), c2 (90 nM to below 700 nM), c3 (700 nM or more)

Query: Sort O=C1c2cc(F)ccc2-n2c1nc1ccc(Cn3cc(-c4ccccc4)nn3)cc1c2=O [3c] into one of the categories.
Reply: c2

Query: // same read-out, input: Cc1ccc2nc3n(c(=O)c2c1)-c1ccc(Cn2cc(-c4ccccc4)nn2)cc1C3=O [3d]
Reply: c3

Query: // same read-out, input: CN1CCN(Cc2ccc3nc4n(c(=O)c3c2)-c2ccccc2C4=O)CC1 [1d]
Reply: c2

Query: // same read-out, input: CC(C)(C)OC(=O)N1CCN(Cc2ccc3nc4n(c(=O)c3c2)-c2ccc(F)cc2C4=O)CC1 [1c]
Reply: c1

Query: // same read-out, input: CN1CCN(Cc2ccc3nc4n(c(=O)c3c2)-c2ccc(F)cc2C4=O)CC1 [1a]
Reply: c2

====

Experimental system: IDO2 (Homo sapiens, UniProt Q6ZQW0)
Construct: made in house
Protocol: Determination of IDO2 inhibitor type and Ki value
Format: biochemical
Test settings: [S]/V~[i] map, L-tryptophan 20-40 mM
Observation type: pKi
// pKi is dimensionless: -log10 of concentration (M)

Query: Test system IDO2 (Homo sapiens, UniProt Q6ZQW0); read-out pKi; what value for CC(C)(C)OC(=O)N1CCN(Cc2ccc3nc4n(c(=O)c3c2)-c2ccc(F)cc2C4=O)CC1 ?
Reply: 5.21

Query: // same read-out, input: CN1CCN(Cc2ccc3nc4n(c(=O)c3c2)-c2ccc(F)cc2C4=O)CC1
Reply: 5.20

Query: // same read-out, input: CN1CCN(Cc2ccc3nc4n(c(=O)c3c2)-c2ccccc2C4=O)CC1
Reply: 5.05
